Please respond with reported Kd for every item in the list.
- target_under_test: IgG
- assay_info: SPR (BIAcore T200), 1:1 binding fit
Bridges are numbered along the chain shown (N, C = ends). Primed or numbered codes have the meaning given here. The star is where a group is joined. Biotin = O=C1N[C@H]2[C@H](CS[C@H]2CCCCC(=O)*)N1; PEG4′ = not defined here
Numeric only. Scale: nM

Please look up its Kd: {Biotin-PEG4′}-DCAYHRGELVWCT-NH2 (disulfide 2-12 (inferred))
54

Please look up its Kd: {Biotin-PEG4′}-GPDCAYHRGELVWCTFH-NH2 (disulfide 4-14 (inferred))
9.1

Please look up its Kd: {Biotin-PEG4′}-GPDCAYHLGELVWCTFH-NH2 (disulfide 4-14 (inferred))
8.1

Please look up its Kd: {Biotin-PEG4′}-GPRCAYHRGELVWCSFH-NH2 (disulfide 4-14 (inferred))
42
